# Species on record: Rattus norvegicus
# test-protocol: Selectivity index, ratio of IC50 for Wistar rat kidney ALR1 to IC50 for Wistar rat lens ALR2
measurement-kind: Ratio IC50

line-notation | Ratio IC50
O=C(/C=C/c1ccc(O)c(O)c1)c1cccc2[nH]c(=O)oc12 | 0.595
CC(C)=CCn1c(=O)oc2c(C(=O)/C=C/c3cc(F)c(O)c(F)c3)cccc21 | 49

A = CC(C)=CCCn1c(=O)oc2c(C(=O)/C=C/c3ccc(O)c(O)c3)cccc21
B = COC(=O)Cn1c(=O)oc2c(C(=O)/C=C/c3ccc(O)c(O)c3)cccc21
For the two items A and B , which reports the higher Ratio IC50 value? Reply with the label of the item you choose.
A
(A: 79.3, B: 54.6)

====

Parameter: Activity. Scope: all listed entries.
# Test system: Brain
# test-protocol: Antioxidant activity in rat brain homogenate assessed as inhibition of lipid peroxidation by measuring MDA concentration at 5 uM by TBARS assay relative to control
# Assay type: functional, tissue-based
# Set-up: scale not given: the % may be the effect or the level left
Supply the numeric figure in %, leaving out any unit text.

Kindly state the measured Activity obtained for Cc1c(C)c2c(c(C)c1O)CCC(C)(C(=O)O)O2 (centres undefined) with Brain.
15.5

Kindly state the measured Activity obtained for CC(C)=CCn1c(=O)oc2c(C(=O)/C=C/c3ccc(O)c(O)c3)cccc21 with Brain.
52

Kindly state the measured Activity obtained for CC(C)=CCCn1c(=O)oc2c(C(=O)/C=C/c3ccc(O)c(O)c3)cccc21 with Brain.
63.2

Kindly state the measured Activity obtained for COC(=O)Cn1c(=O)oc2c(C(=O)/C=C/c3ccc(O)c(O)c3)cccc21 with Brain.
60.5

====

# System: Brain
# test-protocol: Antioxidant activity in rat brain homogenate assessed as inhibition of lipid peroxidation by measuring MDA concentration at 10 uM relative to control
# Assay type: functional, tissue-based
# Set-up: scale not given: the % may be the effect or the level left
measurement-kind: Activity (%)
Supply the numeric figure in %, leaving out any unit text.

molecule | units | Activity
Cc1c(C)c2c(c(C)c1O)CCC(C)(C(=O)O)O2 (stereo not given) | % | 31.9
COC(=O)Cn1c(=O)oc2c(C(=O)/C=C/c3ccc(O)c(O)c3)cccc21 | % | 77.5
COC(=O)Cn1c(=O)oc2c(C(=O)/C=C/c3ccc(O)c(OC)c3)cccc21 | % | 23.6
CC(C)=CCn1c(=O)oc2c(C(=O)/C=C/c3ccc(O)c(O)c3)cccc21 | % | 65.8

// next item, Activity requested
# lookup: Activity of CC(C)=CCCn1c(=O)oc2c(C(=O)/C=C/c3ccc(O)c(O)c3)cccc21
73

====

# Test system: Brain
# test-protocol: Antioxidant activity in rat brain homogenate assessed as inhibition of lipid peroxidation by measuring MDA concentration at 50 uM by TBARS assay relative to control
# Format: functional, tissue-based
# Design: scale not given: the % may be the effect or the level left
measurement-kind: Activity (%)
Supply the numeric figure in %, leaving out any unit text.

molecule | Activity [%]
CC(C)=CCn1c(=O)oc2c(C(=O)/C=C/c3ccc(O)cc3)cccc21 | 27

# lookup: Activity of COC(=O)Cn1c(=O)oc2c(C(=O)/C=C/c3cc(F)c(O)c(F)c3)cccc21
20.9

# lookup: Activity of Cc1c(C)c2c(c(C)c1O)CCC(C)(C(=O)O)O2 (stereo unspecified)
47.5

# lookup: Activity of COC(=O)Cn1c(=O)oc2c(C(=O)/C=C/c3ccc(O)cc3)cccc21
24.1

# lookup: Activity of COC(=O)Cn1c(=O)oc2c(C(=O)/C=C/c3ccc(O)c(OC)c3)cccc21
43

# lookup: Activity of CC(C)=CCn1c(=O)oc2c(C(=O)/C=C/c3ccc(O)c(F)c3)cccc21
22.4

# lookup: Activity of CC(C)=CCCn1c(=O)oc2c(C(=O)/C=C/c3ccc(O)c(O)c3)cccc21
92.5

# lookup: Activity of COC(=O)Cn1c(=O)oc2c(C(=O)/C=C/c3ccc(O)c(F)c3)cccc21
25.4

# lookup: Activity of COC(=O)Cn1c(=O)oc2c(C(=O)/C=C/c3ccc(O)c(O)c3)cccc21
91.6

# lookup: Activity of CC(C)=CCn1c(=O)oc2c(C(=O)/C=C/c3ccc(O)c(O)c3)cccc21
90.7

# lookup: Activity of CC(C)=CCn1c(=O)oc2c(C(=O)/C=C/c3cc(F)c(O)c(F)c3)cccc21
25.9

====

Parameter: Activity. Scope: all listed entries.
# test-protocol: Antioxidant activity assessed as DPPH radical scavenging activity at 10 uM incubated for 30 mins by DPPH assay relative to control
# Type: functional
Supply the numeric figure in %, leaving out any unit text.

// worked examples, Activity included
line-notation | Activity, %
COC(=O)Cn1c(=O)oc2c(C(=O)/C=C/c3cc(F)c(O)c(F)c3)cccc21 | 9.1
CC(C)=CCn1c(=O)oc2c(C(=O)/C=C/c3ccc(O)c(F)c3)cccc21 | 12.7
CC(C)=CCCn1c(=O)oc2c(C(=O)/C=C/c3ccc(O)c(O)c3)cccc21 | 94.4
COC(=O)Cn1c(=O)oc2c(C(=O)/C=C/c3ccc(O)c(OC)c3)cccc21 | 50.3
CC(C)=CCn1c(=O)oc2c(C(=O)/C=C/c3ccc(O)cc3)cccc21 | 7.1

// next item, Activity requested
# lookup: Activity of COC(=O)Cn1c(=O)oc2c(C(=O)/C=C/c3ccc(O)cc3)cccc21
10.6

====

# test-protocol: Inhibition of Saccharomyces cerevisiae Alpha-glucosidase using p-nitrophenyl glucopyranoside as substrate preincubated for 5 mins followed by substrate addition and measured for 30 mins
pIC50: −log10 of the molar value.
measurement-kind: pIC50

a = CC(C)=CCn1c(=O)oc2c(C(=O)/C=C/c3ccc(O)c(F)c3)cccc21
b = CC(C)=CCCn1c(=O)oc2c(C(=O)/C=C/c3ccc(O)c(O)c3)cccc21
Lower value of pIC50 belongs to which: a or b ? Reply with the label of the item you choose.
a
(a: 4.28, b: 5.38)

1 = COC(=O)Cn1c(=O)oc2c(C(=O)/C=C/c3ccc(O)cc3)cccc21
2 = O=C(/C=C/c1ccc(O)c(F)c1)c1cccc2[nH]c(=O)oc12
Lower value of pIC50 belongs to which: 1 or 2 ? Reply with the label of the item you choose.
2

A = COC(=O)Cn1c(=O)oc2c(C(=O)/C=C/c3ccc(O)c(F)c3)cccc21
B = O=C(/C=C/c1ccc(O)cc1)c1cccc2[nH]c(=O)oc12
For the two items A and B , which reports the higher pIC50 value? Reply with the label of the item you choose.
A
(A: 4.24, B: 3.98)

I = CC(C)=CCn1c(=O)oc2c(C(=O)/C=C/c3ccc(O)cc3)cccc21
II = O=C(/C=C/c1cc(F)c(O)c(F)c1)c1cccc2[nH]c(=O)oc12
For the two items I and II , which reports the higher pIC50 value? Reply with the label of the item you choose.
I
(I: 4.38, II: 3.97)

====

# Organism: Rattus norvegicus
# test-protocol: Selectivity index, ratio of IC50 for Wistar rat kidney ALR1 to IC50 for Wistar rat lens ALR2
measurement-kind: Ratio IC50

// worked examples, Ratio IC50 included
line-notation | Ratio IC50
O=C(/C=C/c1ccc(O)cc1)c1cccc2[nH]c(=O)oc12 | > 35.1
COC(=O)Cn1c(=O)oc2c(C(=O)/C=C/c3ccc(O)c(Cl)c3)cccc21 | > 8.82
CC(C)=CCn1c(=O)oc2c(C(=O)/C=C/c3ccc(O)cc3)cccc21 | > 498
COC(=O)Cn1c(=O)oc2c(C(=O)/C=C/c3ccc(O)cc3)cccc21 | > 415
COC(=O)Cn1c(=O)oc2c(C(=O)/C=C/c3ccc(O)c(OC)c3)cccc21 | > 7.59

# lookup: Ratio IC50 of COc1cc(O)ccc1/C=C/C(=O)c1cccc2[nH]c(=O)oc12
> 5.98

====

# test-protocol: Inhibition of Saccharomyces cerevisiae Alpha-glucosidase using p-nitrophenyl glucopyranoside as substrate preincubated for 5 mins followed by substrate addition and measured for 30 mins
measurement-kind: IC50 (µM)

line-notation | IC50, µM
O=C(/C=C/c1ccc(O)c(O)c1)c1cccc2[nH]c(=O)oc12 | 63.7
COC(=O)Cn1c(=O)oc2c(C(=O)/C=C/c3cc(F)c(O)c(F)c3)cccc21 | 71.2
CC(C)=CCn1c(=O)oc2c(C(=O)/C=C/c3cc(F)c(O)c(F)c3)cccc21 | 59.9
